- EXPERIMENTAL_SYSTEM: T1, human alpha CGRP (SEQ ID NO: 80) (human, not fully specified)
- T1 peptide: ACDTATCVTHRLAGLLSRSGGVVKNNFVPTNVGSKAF
- TEST_METHOD_NOTES: cell-based or functional assay
METRIC_NAME: IC50, CGRP-induced cAMP production, SK-N-MC cells (nM)
The figure you give is taken to be in nM; do not add the unit.

## Input Can you share its IC50, CGRP-induced cAMP production, SK-N-MC cells? I mean this binder: lipocalin mutein SEQ ID NO: 19 (designed binder, biotinylated by NHS chemistry for capture in SPR) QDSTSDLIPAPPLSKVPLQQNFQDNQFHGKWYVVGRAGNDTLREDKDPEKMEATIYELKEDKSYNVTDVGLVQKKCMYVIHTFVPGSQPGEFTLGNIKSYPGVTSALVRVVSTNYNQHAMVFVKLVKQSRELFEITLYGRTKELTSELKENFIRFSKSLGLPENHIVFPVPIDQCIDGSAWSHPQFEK
## Output 0.14

## Input Request the reported IC50, CGRP-induced cAMP production, SK-N-MC cells associated with lipocalin mutein SEQ ID NO: 14 (designed binder, biotinylated by NHS chemistry for capture in SPR) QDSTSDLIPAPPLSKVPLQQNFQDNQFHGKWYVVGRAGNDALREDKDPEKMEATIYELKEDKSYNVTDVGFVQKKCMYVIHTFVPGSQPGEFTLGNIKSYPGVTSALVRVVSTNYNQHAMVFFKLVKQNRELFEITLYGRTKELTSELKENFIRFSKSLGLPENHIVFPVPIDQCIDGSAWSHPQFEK
## Output 0.15

## Input Sample lipocalin mutein SEQ ID NO: 23 (designed binder, biotinylated by NHS chemistry for capture in SPR) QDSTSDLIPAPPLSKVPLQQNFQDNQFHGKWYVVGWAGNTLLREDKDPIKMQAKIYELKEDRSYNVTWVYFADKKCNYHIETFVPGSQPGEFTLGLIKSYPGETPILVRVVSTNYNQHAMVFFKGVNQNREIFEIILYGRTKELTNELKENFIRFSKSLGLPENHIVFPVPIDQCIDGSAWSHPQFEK — what was its IC50, CGRP-induced cAMP production, SK-N-MC cells?
## Output 0.18

## Input Form field: reported IC50, CGRP-induced cAMP production, SK-N-MC cells of lipocalin mutein SEQ ID NO: 11 (designed binder, biotinylated by NHS chemistry for capture in SPR) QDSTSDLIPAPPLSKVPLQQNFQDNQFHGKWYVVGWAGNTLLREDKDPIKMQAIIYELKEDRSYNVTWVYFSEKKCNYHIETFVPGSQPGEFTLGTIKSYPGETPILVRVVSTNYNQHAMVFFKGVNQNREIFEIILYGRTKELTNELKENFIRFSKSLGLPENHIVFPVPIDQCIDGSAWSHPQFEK
## Output 0.11

## Input What value of IC50, CGRP-induced cAMP production, SK-N-MC cells has been recorded for this entry: lipocalin mutein SEQ ID NO: 18 (designed binder) QDSTSDLIPAPPLSKVPLQQNFQDNQFHGKWYVVGRAANDVLRDDNDPEKMEATIYELKEDKSYNVTDVGFVQKKCMYVVHTFVPGSQPGEFTLGNIKSYPGVTSALVRVVSTNYNQHAMVFFKLVKQNRELFEVTLYGRTKELTSELKENFIRFSKSLGLPENHIVFPVPIDQCIDGSAWSHPQFEK
## Output 0.19
